# assay info: Acute toxicity (LD50) in rats
# conditions used: rat, in vivo, po
# Method: The present compounds are very safe with extremely low toxic potential and can, therefore, be used with advantage for the purposes of this invention. For example, the LD50 of L-ascorbyl DL-α-tocopheryl phosphate potassium (abbreviation: EPC-K): is ≥ 5 g/kg p.o. (rats) and ≥ 100 mg/kg i.v. (rats).
experimental readout: LD50

INSERT INTO measurements (molecule, experimental_readout, result) VALUES
  ('Cc1c(C)c2c(c(C)c1OP(=O)(O)OC1=C(O)[C@@H]([C@@H](O)CO)OC1=O)CCC(C)(CCCC(C)CCCC(C)CCCC(C)C)O2 (mixture of isomers) [EPC-K]', 'LD50', '≥ 5000 mg/kg');
